Where do these numbers come from? They come from patent US11851419B2.

target: GLP-1R (Homo sapiens); assay: GLP-1R Activation - cAMP Assay 1 (cAMP increase in CHO cells stably expressing GLP-1R); type: cell-based; details: 10 point dose response, 30 minutes incubation at 37° C., cAMP Gs Dynamic Kit
Sequence (P43220 24-463): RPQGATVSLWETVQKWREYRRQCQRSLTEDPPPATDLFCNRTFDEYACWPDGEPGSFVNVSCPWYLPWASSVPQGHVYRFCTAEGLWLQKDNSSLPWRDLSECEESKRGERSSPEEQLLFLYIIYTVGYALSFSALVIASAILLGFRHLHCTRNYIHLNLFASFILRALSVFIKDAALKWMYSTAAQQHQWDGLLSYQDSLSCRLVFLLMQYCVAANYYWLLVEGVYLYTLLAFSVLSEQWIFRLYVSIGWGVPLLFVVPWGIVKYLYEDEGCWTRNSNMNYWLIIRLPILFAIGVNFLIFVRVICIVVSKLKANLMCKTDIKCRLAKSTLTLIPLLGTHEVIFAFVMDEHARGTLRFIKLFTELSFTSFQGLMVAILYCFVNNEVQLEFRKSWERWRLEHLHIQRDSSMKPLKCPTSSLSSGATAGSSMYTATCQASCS
pEC50: −log10 of the molar value.
quantity kind: pEC50

INSERT INTO assay_data (molecule, quantity_kind, reported_result) VALUES
  ('COCCn1c(CN2CCC(c3cccc(OCc4ccc(C#N)cc4F)n3)CC2)nc2c(F)c(F)c(C(=O)O)cc21', 'pEC50', 7.74),
  ('COCCn1c(CN2CCC(c3cccc(OCc4ccc(C#N)cc4F)n3)CC2)nc2c(COC)cc(C(=O)O)cc21', 'pEC50', 7.84),
  ('COCCn1c(C2CC23CCN(c2cccc(OCc4ccc(C#N)cc4F)n2)CC3)nc2c(F)cc(C(=O)O)cc21 (stereo not shown)', 'pEC50', 8.42);

1 = COCCn1c(CN2CCC(c3cccc(OCc4ccc(C#N)cc4F)n3)CC2)nc2c(Cl)cc(C(=O)O)cc21
2 = COCCn1c(CN2CCC(c3cccc(OCc4ccc(C#N)cc4F)n3)CC2)nc2c(C)cc(C(=O)O)cc21
3 = COCCn1c(CN2CCC(c3cccc(OCc4ccc(C#N)cc4F)n3)CC2)nc2c(C#N)cc(C(=O)O)cc21
4 = CC(C)(C#N)Cn1c(CN2CCC(c3cccc(OCc4ccc(C#N)cc4F)n3)CC2)nc2c(F)cc(C(=O)O)cc21
Please order the records by their reported pEC50, lowest number first. Please write the labels in the order that was asked for.
2, 1, 3, 4
(2: 7.68, 1: 8.18, 3: 8.46, 4: 9.62)
